Just for reference, PubChem BioAssay AID2060900 is where these values come from.

Here, each record is paired with measured viability, T/C data.
tested on: 521955-158-R2-J5-PDC complex spheroids, viability; test: Anticancer human tumor 521955-158-R2-J5-PDC patient-derived pancreatic carcinoma cell line growth inhibition [RAS]; details: second compound 0.03 µM; first compound 0.0316 µM; hits give low values

Solved cases (3 shown):
molecule: Cc1nc(N2CCC3(CC2)COC(C)C3N)c(CO)nc1Sc1ccnc(N)c1Cl (centres undefined) + CCn1c(-c2cc(N3CCN(C)CC3)cnc2C(C)OC)c2c3cc(ccc31)-c1csc(n1)CC(NC(=O)C1CC1C)C(=O)N1CCCC(N1)C(=O)OCC(C)(C)C2
viability, T/C: 15.9%

molecule: CC(C)n1nc(-c2ccc3oc(N)nc3c2)c2c(N)ncnc21 + CCn1c(-c2cc(N3CCN(C)CC3)cnc2C(C)OC)c2c3cc(ccc31)-c1csc(n1)CC(NC(=O)C1CC1C)C(=O)N1CCCC(N1)C(=O)OCC(C)(C)C2
viability, T/C: 11.7%

molecule: C[C@@H](NC(=O)c1ncnc(N)c1Cl)c1ncc(C(=O)Nc2cc(C(F)(F)F)c(Cl)cn2)s1 + CCn1c(-c2cc(N3CCN(C)CC3)cnc2C(C)OC)c2c3cc(ccc31)-c1csc(n1)CC(NC(=O)C1CC1C)C(=O)N1CCCC(N1)C(=O)OCC(C)(C)C2
viability, T/C: 26.9%

// switching to the query molecule
Request the reported viability, T/C associated with CC1(O)CCCC1n1c(=O)c(C(F)F)cc2cnc(NC3CCN(S(C)(=O)=O)CC3)nc21 (centres undefined) + CCn1c(-c2cc(N3CCN(C)CC3)cnc2C(C)OC)c2c3cc(ccc31)-c1csc(n1)CC(NC(=O)C1CC1C)C(=O)N1CCCC(N1)C(=O)OCC(C)(C)C2 18.9%

---

test system: 521955-158-R2-J5-PDC complex spheroids, viability; assay: Anticancer human tumor 521955-158-R2-J5-PDC cell line growth inhibition [RAS]; settings: second compound 0.0949 µM; first compound 10 µM; hits give low values;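 also: spheroids also contain HUVEC endothelial cells and mesenchymal stem cells as stroma; compound exposure lasted seven days before the viability read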
measured_endpoint: viability, T/C (%)
Give the number; % is assumed, so skip it.

compound: CC(Nc1ccc2c(c1)OCCn1cc(N3C(=O)OCC3C(F)F)nc1-2)C(N)=O (centres undefined) + CCn1c(-c2cccnc2C(C)OC)c2c3cc(ccc31)N1CCOC(CC(NC(=O)C(C(C)C)N(C)C(=O)C3(F)CCN(C(=O)C#CC(C)(C)N(C)C)CC3)C(=O)N3CCCC(N3)C(=O)OCC(C)(C)C2)C1
units_text: %
viability, T/C: 13.6

compound: NC1c2ccccc2OC12CCN(c1cnc3c(N4CCCc5ncccc54)n[nH]c3n1)CC2 (centres undefined) + CCn1c(-c2cccnc2C(C)OC)c2c3cc(ccc31)N1CCOC(CC(NC(=O)C(C(C)C)N(C)C(=O)C3(F)CCN(C(=O)C#CC(C)(C)N(C)C)CC3)C(=O)N3CCCC(N3)C(=O)OCC(C)(C)C2)C1
units_text: %
viability, T/C: 45.7

compound: C[C@@H](NC(=O)c1ncnc(N)c1Cl)c1ncc(C(=O)Nc2cc(C(F)(F)F)c(Cl)cn2)s1 + CCn1c(-c2cccnc2C(C)OC)c2c3cc(ccc31)N1CCOC(CC(NC(=O)C(C(C)C)N(C)C(=O)C3(F)CCN(C(=O)C#CC(C)(C)N(C)C)CC3)C(=O)N3CCCC(N3)C(=O)OCC(C)(C)C2)C1
units_text: %
viability, T/C: 58.8

// switching to the query compound
Request the reported viability, T/C associated with CC(Nc1ccc2c(c1)OCCn1cc(N3C(=O)OCC3C(F)F)nc1-2)C(N)=O (centres undefined) + CCn1c(-c2cc(N3CCN(C)CC3)cnc2C(C)OC)c2c3cc(ccc31)-c1csc(n1)CC(NC(=O)C1CC1C)C(=O)N1CCCC(N1)C(=O)OCC(C)(C)C2 1.25

---

tested on: 521955-158-R2-J5-PDC complex spheroids, viability; experiment: Anticancer human tumor 521955-158-R2-J5-PDC cell line growth inhibition [RAS]; conditions: second compound 0.003 µM; first compound 0.0316 µM; hits give low values;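 also: spheroids also contain HUVEC endothelial cells and mesenchymal stem cells as stroma; compound exposure lasted seven days before the viability read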
measured_endpoint: viability, T/C

Solved cases (3 shown):
molecule: Cc1nc(N2CCC3(CC2)COC(C)C3N)c(CO)nc1Sc1ccnc(N)c1Cl (centres undefined) + CCn1c(-c2cc(N3CCN(C)CC3)cnc2C(C)OC)c2c3cc(ccc31)-c1csc(n1)CC(NC(=O)C1CC1C)C(=O)N1CCCC(N1)C(=O)OCC(C)(C)C2
value_measured: 36.2%
//
molecule: CC(C)NCC(C(=O)N1CCN(c2ncnc3c2C(C)CC3O)CC1)c1ccc(Cl)cc1 (centres undefined) + CCn1c(-c2cc(N3CCN(C)CC3)cnc2C(C)OC)c2c3cc(ccc31)-c1csc(n1)CC(NC(=O)C1CC1C)C(=O)N1CCCC(N1)C(=O)OCC(C)(C)C2
value_measured: 41.8%
//
molecule: Cc1nc(N2CCC3(CC2)COC(C)C3N)c(CO)nc1Sc1ccnc(N)c1Cl (centres undefined) + CCn1c(-c2cccnc2C(C)OC)c2c3cc(ccc31)N1CCOC(CC(NC(=O)C(C(C)C)N(C)C(=O)C3(F)CCN(C(=O)C#CC(C)(C)N(C)C)CC3)C(=O)N3CCCC(N3)C(=O)OCC(C)(C)C2)C1
value_measured: 74.3%

// switching to the query molecule
Request the reported viability, T/C associated with NC1c2ccccc2OC12CCN(c1cnc3c(N4CCCc5ncccc54)n[nH]c3n1)CC2 (centres undefined) + CCn1c(-c2cccnc2C(C)OC)c2c3cc(ccc31)N1CCOC(CC(NC(=O)C(C(C)C)N(C)C(=O)C3(F)CCN(C(=O)C#CC(C)(C)N(C)C)CC3)C(=O)N3CCCC(N3)C(=O)OCC(C)(C)C2)C1 64%

---

system: 521955-158-R2-J5-PDC complex spheroids, viability; test: Anticancer human tumor 521955-158-R2-J5-PDC cell line growth inhibition [RAS]; conditions: second compound 0.01 µM; first compound 10 µM; hits give low values;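 also: spheroids also contain HUVEC endothelial cells and mesenchymal stem cells as stroma; compound exposure lasted seven days before the viability read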
measured_endpoint: viability, T/C (%)
Give the number; % is assumed, so skip it.

Solved cases (3 shown):
molecule: CCC(CC)c1cc(NC2CCC(N)C2)n2nccc2n1 (stereo not drawn) + C=CC(=O)N1CCN(c2nc(OCC3CCCN3C)nc3c(F)c(-c4nc(N)cc(C)c4C(F)(F)F)c(Cl)cc23)C(C)C1
units_text: %
viability, T/C: 12.1
--
molecule: CC(=O)OC12COC1CC(O)C1(C)C(=O)C(O)C3=C(C)C(OC(=O)C(O)C(NC(=O)OC(C)(C)C)c4ccccc4)CC(O)(C(OC(=O)c4ccccc4)C21)C3(C)C (stereo not drawn) + C=CC(=O)N1CCN(c2nc(OCC3CCCN3C)nc3c(F)c(-c4nc(N)cc(C)c4C(F)(F)F)c(Cl)cc23)C(C)C1
units_text: %
viability, T/C: 52.6
--
molecule: Cc1nc(N2CCC3(CC2)COC(C)C3N)c(CO)nc1Sc1ccnc(N)c1Cl (stereo not drawn) + C=CC(=O)N1CCN(c2nc(OCC3CCCN3C)nc3c(F)c(-c4nc(N)cc(C)c4C(F)(F)F)c(Cl)cc23)C(C)C1
units_text: %
viability, T/C: 63.3

Request the reported viability, T/C associated with CC(C)NCC(C(=O)N1CCN(c2ncnc3c2C(C)CC3O)CC1)c1ccc(Cl)cc1 (stereo not drawn) + C=CC(=O)N1CCN(c2nc(OCC3CCCN3C)nc3c(F)c(-c4nc(N)cc(C)c4C(F)(F)F)c(Cl)cc23)C(C)C1 55

Also, NC1c2ccccc2OC12CCN(c1cnc3c(N4CCCc5ncccc54)n[nH]c3n1)CC2 (stereo not drawn) + C=CC(=O)N1CCN(c2nc(OCC3CCCN3C)nc3c(F)c(-c4nc(N)cc(C)c4C(F)(F)F)c(Cl)cc23)C(C)C1 please. 65.6

Also, CC(Nc1ccc2c(c1)OCCn1cc(N3C(=O)OCC3C(F)F)nc1-2)C(N)=O (stereo not drawn) + C=CC(=O)N1CCN(c2nc(OCC3CCCN3C)nc3c(F)c(-c4nc(N)cc(C)c4C(F)(F)F)c(Cl)cc23)C(C)C1 please. 22.9

Also, C[C@@H](NC(=O)c1ncnc(N)c1Cl)c1ncc(C(=O)Nc2cc(C(F)(F)F)c(Cl)cn2)s1 + C=CC(=O)N1CCN(c2nc(OCC3CCCN3C)nc3c(F)c(-c4nc(N)cc(C)c4C(F)(F)F)c(Cl)cc23)C(C)C1 please. 60.2

Also, CC1(O)CCCC1n1c(=O)c(C(F)F)cc2cnc(NC3CCN(S(C)(=O)=O)CC3)nc21 (stereo not drawn) + C=CC(=O)N1CCN(c2nc(OCC3CCCN3C)nc3c(F)c(-c4nc(N)cc(C)c4C(F)(F)F)c(Cl)cc23)C(C)C1 please. 17.2

---

system: 521955-158-R2-J5-PDC complex spheroids, viability; assay: Anticancer human tumor 521955-158-R2-J5-PDC cell line growth inhibition [RAS]; conditions: second compound 3.16 µM; first compound 3.16 µM; hits give low values;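 also: spheroids also contain HUVEC endothelial cells and mesenchymal stem cells as stroma; compound exposure lasted seven days before the viability read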
Here, each record is paired with measured viability, T/C data.

Solved cases (4 shown):
compound: CC1(O)CCCC1n1c(=O)c(C(F)F)cc2cnc(NC3CCN(S(C)(=O)=O)CC3)nc21 (stereo not given) + C#Cc1c(F)ccc2cc(O)cc(-c3ncc4c(N5CC6CCC(C5)N6)nc(OCC56CCCN5CC(F)C6)nc4c3F)c12
measured_endpoint: viability, T/C
value_measured: 56.6%
//
compound: CC(=O)OC12COC1CC(O)C1(C)C(=O)C(O)C3=C(C)C(OC(=O)C(O)C(NC(=O)OC(C)(C)C)c4ccccc4)CC(O)(C(OC(=O)c4ccccc4)C21)C3(C)C (stereo not given) + C#Cc1c(F)ccc2cc(O)cc(-c3ncc4c(N5CC6CCC(C5)N6)nc(OCC56CCCN5CC(F)C6)nc4c3F)c12
measured_endpoint: viability, T/C
value_measured: 31.1%
//
compound: CC(C)NCC(C(=O)N1CCN(c2ncnc3c2C(C)CC3O)CC1)c1ccc(Cl)cc1 (stereo not given) + C#Cc1c(F)ccc2cc(O)cc(-c3ncc4c(N5CC6CCC(C5)N6)nc(OCC56CCCN5CC(F)C6)nc4c3F)c12
measured_endpoint: viability, T/C
value_measured: 5.14%
//
compound: C[C@@H](NC(=O)c1ncnc(N)c1Cl)c1ncc(C(=O)Nc2cc(C(F)(F)F)c(Cl)cn2)s1 + C#Cc1c(F)ccc2cc(O)cc(-c3ncc4c(N5CC6CCC(C5)N6)nc(OCC56CCCN5CC(F)C6)nc4c3F)c12
measured_endpoint: viability, T/C
value_measured: 43.5%

// switching to the query compound
Reported viability, T/C for 521955-158-R2-J5-PDC complex spheroids, viability, given CC(Nc1ccc2c(c1)OCCn1cc(N3C(=O)OCC3C(F)F)nc1-2)C(N)=O (stereo not given) + C#Cc1c(F)ccc2cc(O)cc(-c3ncc4c(N5CC6CCC(C5)N6)nc(OCC56CCCN5CC(F)C6)nc4c3F)c12 ? 8.73%
